The reported measurements were obtained from PubChem BioAssay (NCI).

Below, each of the compounds is paired with its reported growth value.
Tested on: RPMI-8226 leukemia
Experiment: NCI-60 one-dose screen, 48 h (100 = growth as untreated, 0 = no growth, -100 = all killed)
Details: 10 µM unless noted
Compounds without any hit were thinned out: in the full panel of roughly 83,000, 20% have a hit.

| compound | unit.label | growth |
| --- | --- | --- |
| Cc1ccc(Cn2c(-c3nonc3N)nc3ccccc32)cc1 | % | 91 |
| COc1cc(CCn2nnc3c(Nc4ccc(N5CCOCC5)cc4)ncnc32)cc(OC)c1 | % | 72.8 |
| COc1cc(Cn2c(SCC(=O)Nc3ccc(Cl)cc3)nc3ccccc3c2=O)cc(OC)c1OC | % | 28.6 |
| O=[N+]([O-])c1cc(S(=O)(=O)OCC2CO2)ccc1Cl (stereo unspecified) | % | 63.6 |
| c1ccn2nnnc2c1 | % | 102 |
| COc1ccc(C(=O)c2cc(OC)c(OC)c(OC)c2)cc1/C=C/C(=O)c1ccc(OC)c(OC)c1 | % | 8.82 |

====

Test system: TK-10 renal
Assay: NCI-60 one-dose screen, 48 h (100 = growth as untreated, 0 = no growth, -100 = all killed)
Details: 10 µM unless noted
The panel holds about 83,000 compounds, 20% with a hit somewhere; the sample as a whole holds those more often.
Below, each of the compounds is paired with its reported growth value.

| compound | growth, % |
| --- | --- |
| O=C1c2ccccc2C(=O)c2c1oc1oc3c(c(=O)c21)c(=O)n(-c1ccccc1)c1ccccc31 | 64.2 |
| COc1ccc2c(c1)C=CC(C#N)N2C(=O)c1ccccc1 (stereo not given) | 70.9 |
| CC(C)CCC[C@@H](C)[C@H]1CC[C@H]2[C@@H]3CC[C@H]4C/C(=N/O)CC[C@]4(C)[C@H]3CC[C@]12C | 105 |
| Cc1cc(Nc2nc(-c3ccncc3)nc3ccccc23)n[nH]1 | 62 |
| COC(=O)c1cc(-c2cccs2)c(C#N)c(N)c1C#N | 116 |

====

Test system: SF-268 CNS
Assay: NCI-60 one-dose screen, 48 h (100 = growth as untreated, 0 = no growth, -100 = all killed)
Conditions: 10 µM unless noted
About 83,000 compounds went through this panel and 20% of them were active in at least one assay; those are over-represented in the sample as a whole. Active and inactive are the calls of the source. The calls were made as follows: active = growth percent below 10; inactive = the rest.

| molecule | system.name | growth |
| --- | --- | --- |
| CCN(CC)CCCNc1nc(C)cc(Nc2ccc3nc(C)cc(N)c3c2)n1 | SF-268 CNS | 92.9% (inactive) |
| COc1cc2c3c(c(=O)oc2cc1OS(=O)(=O)c1ccc(C(F)(F)F)cc1)CCCCC3 | SF-268 CNS | 93.4% (inactive) |
| CC(CCc1ccccc1)NC(=O)c1n[nH]c(=O)c2ccccc12 (stereo unspecified) | SF-268 CNS | 112% (inactive) |
| Cc1cc(C(=O)O)c(N)c(C)n1 | SF-268 CNS | 104% (inactive) |
| COc1cc(C(=O)N2CCN(C(=O)c3ccco3)CC2)c(N)cc1OCc1ccccc1 | SF-268 CNS | 108% (inactive) |
| CCOC(=O)/C=C\C(=O)NC(N)=O | SF-268 CNS | 106% (inactive) |

====

Tested on: M14 melanoma
Assay: NCI-60 one-dose screen, 48 h (100 = growth as untreated, 0 = no growth, -100 = all killed)
Settings: 10 µM unless noted
This is part of a sample that, as a whole, favours compounds with a hit. Of some 83,000 tested, about 20% had one in any assay. Active and inactive are the calls of the source. The calls were made as follows: active = growth percent below 10; inactive = the rest.
Below, each of the compounds is paired with its reported growth value.
property.measured: growth

| compound | recorded.result |
| --- | --- |
| Cc1cc2c(C(C)C)c(O)c(O)c(C=NCCCCC(=O)O)c2c(O)c1-c1c(C)cc2c(C(C)C)c(O)c(O)c(C=NCCCCC(=O)O)c2c1O | 66.9% (inactive) |
| CCSc1nnc(Nc2ccc(C(C)C)cc2)s1 | 95.7% (inactive) |
| CCCCn1c(=O)c(C2CNC(=O)c3ccccc3N2)cc2ccccc21 (stereo not given) | 107% (inactive) |
| COc1cc(C(=O)/C=C/c2cc(C(=O)c3cc(OC)c(OC)c(OC)c3)ccc2OC)ccc1N | -52.9% (active) |
| COc1cc(Cn2c(SCCC(=O)Nc3ccc(F)cc3)nc3ccccc3c2=O)cc(OC)c1OC | 93% (inactive) |
| COc1ccc(C2SCC(=O)N2NC(=O)c2ccc(NC(=O)c3ccccn3)cc2)cc1OC (stereo not given) | 102% (inactive) |
| Cc1cccc(NC(=O)c2sc3nc4c(cc3c2N)CCCC4)c1 | 30.3% (inactive) |
| CC1=C(C#N)C(C)(C)C(C#N)=C(C)N1 | 102% (inactive) |
| CCOC(=O)C(Cc1ccccc1)n1c(O)c(C=Nc2ccc(C(=O)OCCN(CC)CC)cc2)sc1=O (stereo not given) | -36.1% (active) |
| COc1cccc(NC(=O)Cn2cc3c(=O)oc4ccccc4c3n2)c1 | 101% (inactive) |

====

Below, each of the compounds is paired with its reported growth value.
Tested on: T-47D breast
Experiment: NCI-60 one-dose screen, 48 h (100 = growth as untreated, 0 = no growth, -100 = all killed)
Details: 10 µM unless noted
The panel holds about 83,000 compounds, 20% with a hit somewhere; the sample as a whole holds those more often.
property.measured: growth (%)

| compound | recorded.result |
| --- | --- |
| Cc1nc(Nc2cccnc2)sc1C(=O)/C=C/c1ccc(F)cc1 | 30.2 |
| O=S=Nc1ccc([N+](=O)[O-])cc1 | 76.2 |
| CCSc1nnc(Nc2ccc(C(C)C)cc2)s1 | 78.7 |
| C=C1C(=O)O[C@H]2[C@H]1CC/C(Cn1cc(-c3ccc(N)cc3)nn1)=C\CC[C@@]1(C)O[C@@H]21 | -40.4 |
| C=CCn1c(C)nc2ccc(Nc3nc(Nc4ccc(F)cc4)nc4ccccc34)cc21 | 35 |
| COc1ccc([N+](=O)[O-])c(/C=C/C(=O)c2ccccn2)c1 | 91.8 |
| Cc1ccc2nc(SCn3nnc4ccccc4c3=O)[nH]c2c1 | 97 |
| NS(=O)(=O)c1ccc(NCC(=O)Nc2ccc(-c3nc4ccccc4s3)cc2)cc1 | 46.4 |
| Clc1cccc(Cl)c1Cn1c(-c2cncs2)nc2ccccc21 | 64.5 |
| CCCCNc1nnc(-c2cc(-c3cc4ccccc4o3)nn2-c2ccccc2)o1 | 76.7 |
| N=C(N)c1ccc(-c2ccc(-c3ccc(Cl)cc3)o2)nc1 | -75.4 |
| COc1cc(C(=O)OCCCCCCCCCCC[P+](c2ccccc2)(c2ccccc2)c2ccccc2)ccc1O | -43.1 |
| CCc1cccc(C)c1NC(=O)c1sc2nc3c(cc2c1N)C(=O)CCC3 | 24.4 |
| Cc1nc(Nc2cccnc2)sc1C(=O)/C=C/c1ccc(Cl)cc1 | 24.8 |
| Nc1nc(-c2cc3ccccc3o2)cc(=O)c(=O)[nH]1 | 104 |
| COc1ncc(-c2ccc3ncnc(Nc4cccc(Cl)c4)c3c2)cc1NS(=O)(=O)CCN1CCOCC1 | -10.6 |
| CCCn1c(=S)sc2c(Cl)nc(C)nc21 | 104 |
| Clc1nc(Cl)c2ncn(C/C=C/Cn3cnc4c(Cl)nc(Cl)nc43)c2n1 | 38.2 |
| COc1cc(C(=O)/C=C/c2cc(C(=O)c3cc(OC)c(OC)c(OC)c3)ccc2OC)ccc1N | 18 |
| CCCCCC(=O)OCc1ccccc1 | 95.2 |
| COc1cc(-c2cc(/C=C3\CCCCC3=O)[nH]n2)cc(OC)c1OC | 90.1 |
| COC(=O)c1cc(-c2cccs2)c(C#N)c(N)c1C#N | 69.1 |
| COc1cc(Cn2c(SCC(=O)Nc3cc(OC)c(OC)c(OC)c3)nc3ccccc3c2=O)cc(OC)c1OC | 77 |
| O=C(O)c1cccc([N+](=O)[O-])c1/C=C/c1ccccc1 | 95.2 |
| CCCC1OC(c2ccc(C(C)C)cc2)OCC1CC (stereo unspecified) | 85.7 |
| COc1cc(/C=C\c2cc(OC)c(OC)c(OC)c2)cc(N/C=C\C(=O)c2c[nH]c3ccccc23)c1OC | -5.64 |
| CCn1cc(C(=O)O)c(=O)c2cc(F)c(N3CCN(S(=O)(=O)c4ccc(Cl)cc4Cl)CC3)cc21 | 1.7 |
| COc1cc(/C=C2\CCCC3=C2NC(C)=NC3c2cc(OC)c(OC)c(OC)c2)cc(OC)c1OC (stereo unspecified) | 79.2 |
| COc1ccc(-c2nc3sccn3c2-c2ccnc(NCCCNS(=O)(=O)c3ccc(F)cc3)n2)cc1 | -12.7 |
| Cc1cccc2cc(/C=C/C(=O)/C=C/c3ccc(Cl)cc3)c(=O)[nH]c12 | 41.6 |
| Cc1cc(C(=O)CSc2nc3ccccc3c(=O)[nH]2)c(C)n1C | 79.9 |
| C[N+](C)(C)c1ccc(CC2c3ccccc3-c3ccccc32)cc1 | 51.1 |
| CN(C)c1ccc(-c2ccc(-c3ccc(C(=N)N)cn3)o2)cc1 | -68.2 |
| COc1cc2c3c(c(=O)oc2cc1OS(=O)(=O)c1ccc(C(F)(F)F)cc1)CCCCC3 | 80.9 |
| Cc1ccc(S(=O)(=O)N2CCC(C(=O)Nc3ccc(F)cc3F)CC2)cc1 | 88.8 |
| CC[C@H](C)[C@H]1NC(=O)[C@@H](N[C@](C)(O)[C@@H](N)CC(C)C)[C@@H](C)OC(=O)[C@H](Cc2ccc(OC)cc2)N(C)C(=O)[C@@H]2CCCN2C(=O)[C@H](CC(C)C)NC(=O)[C@@H](C)C(=O)[C@H](C(C)C)OC(=O)C[C@@H]1O | -15.4 |
| CCNC(=O)CCCCC(=O)c1c(C)[nH]c(/C=C2\N=C(c3ccc[nH]3)C=C2OC)c1C | -46.3 |
| CC(=O)C1CCC(C)=CC1=O (stereo unspecified) | 90.2 |
| CC(C)[C@H](CO)Nc1nc(Nc2ccc(C(=O)NCCNS(=O)(=O)c3cccc4c(N(C)C)cccc34)c(Cl)c2)c2ncn(C(C)C)c2n1 | 20.6 |
| O=C1Nc2cc(Cl)ccc2/C1=C/c1ccc(N2CCOCC2)s1 | 84 |
| COc1cc(C(=O)N2CCN(C(=O)c3ccco3)CC2)c(N)cc1OCc1ccccc1 | 97.1 |
